target: Virion infectivity factor (Human immunodeficiency virus type 1 group M subtype B (isolate BH10)) + Virion infectivity factor (Human immunodeficiency virus type 1 group M subtype B (isolate BRU/LAI)) + Virion infectivity factor (Human immunodeficiency virus type 1 group M subtype B (isolate PCV12)) + Virion infectivity factor (Human immunodeficiency virus type 1 group M subtype B (isolate HXB2)) + DNA dC->dU-editing enzyme APOBEC-3G (Homo sapiens) (UniProt P69720+P69721+P69722+P69723+Q9HC16); experiment: inhibitors of Vif binding to APOBEC3G peptide, primary screen, biochemical, TR-FRET, GST-Vif 1-94, biotin-A3G peptide, dose response retest (AID 1117319); conditions: hits give high values;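 further: Vif residues 1-94 fused to GST binding biotinylated APOBEC3G peptide 110-148; 0% = full assay without inhibitor and 100% = GST in place of GST-Vif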
About 1,500 (0.58%) of roughly 260,000 compounds were called active. Inconclusive results (about 5%) are left out. Not all results are given here. Results with a measured potency or affinity are listed apart.
Reported inhibition values for the following molecules.
Give the number; % is assumed, so skip it.

{"columns": ["molecule", "inhibition (%)"],
 "data": [
  ["Nc1ccc2c3c(ccc([N+](=O)[O-])c13)CC2", -1.18]
]}

Exercise: Identify the reported inhibition for the following entry. CCOC(=O)C(NC(=O)c1cccc(Cl)c1)(Nc1sc2c(c1C(N)=O)CCC2)C(F)(F)F (configuration not stated)
Solution: 30.9

Exercise: Identify the reported inhibition for the following entry. O=C(COC(=O)c1ccc(S(=O)(=O)N2CCOCC2)cc1)Nc1ccccc1F
Solution: -5.99

Exercise: Identify the reported inhibition for the following entry. CSc1nc(N2CCOCC2)c2c3c(sc2n1)CCCC3
Solution: 2.91

Exercise: Identify the reported inhibition for the following entry. O=C(c1ccc(Cl)cc1)c1cnc(-c2ccccc2)s1
Solution: -2.61

Exercise: Identify the reported inhibition for the following entry. COc1ccc(S(=O)(=O)NCC(=O)NCc2cc(=O)n(C)c(=O)n2C)cc1
Solution: -1.92

Exercise: Identify the reported inhibition for the following entry. O=S(=O)(N=C1C=CC(=NS(=O)(=O)c2ccccc2)c2ccccc21)c1ccccc1
Solution: 14.1

Exercise: Identify the reported inhibition for the following entry. O=C(NCCC1=CCCCC1)c1ccc2c(=O)n3c(nc2c1)CCCCC3
Solution: -3.44

###

target: Virion infectivity factor (Human immunodeficiency virus type 1 group M subtype B (isolate BH10)) + Virion infectivity factor (Human immunodeficiency virus type 1 group M subtype B (isolate BRU/LAI)) + Virion infectivity factor (Human immunodeficiency virus type 1 group M subtype B (isolate PCV12)) + Virion infectivity factor (Human immunodeficiency virus type 1 group M subtype B (isolate HXB2)) + DNA dC->dU-editing enzyme APOBEC-3G (Homo sapiens) (UniProt P69720+P69721+P69722+P69723+Q9HC16); assay: inhibitors of Vif binding to APOBEC3G peptide, primary screen, biochemical, TR-FRET, GST-Vif 1-94, biotin-A3G peptide, dose response retest (AID 1117319); conditions: hits give high values;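 further: Vif residues 1-94 fused to GST binding biotinylated APOBEC3G peptide 110-148; 0% = full assay without inhibitor and 100% = GST in place of GST-Vif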
About 1,500 (0.58%) of roughly 260,000 compounds were called active. Not shown: some 5% with an inconclusive outcome. The list is a sample of the results. Potency and affinity values are given separately.
Reported inhibition values for the following compounds.
Give the number; % is assumed, so skip it.

Answered examples (5):
{"columns": ["smiles-string", "inhibition, %"],
 "data": [
  ["COc1ccc(OC)c(-c2c3c([nH]c(=S)c2C#N)CCCC3)c1", -14.3],
  ["N#Cc1c(-c2cccnc2)c2c([nH]c1=S)CCCC2", 28.4],
  ["Cn1c(=O)c2c(ncn2CC(=O)N/N=C/C=C/c2ccccc2[N+](=O)[O-])n(C)c1=O", 10.3],
  ["COc1ccccc1/C=C/C=N/NC(=O)c1ccncc1", -1.29],
  ["COc1ccc(-c2c3c([nH]c(=S)c2C#N)CCC3)cc1", -9.25]
]}

Exercise: Identify the reported inhibition for the following entry. O=C(c1ccco1)N(c1ccccn1)c1ccccn1
Solution: 3.18
